assay_explanation: SGF digest of 168 nutritive polypeptide library, intact protein by LC-MS/MS
Assay type: in vitro ADME
condition_context: 168 nutritive polypeptide library SGF digest, LC-MS/MS spectral counts

# molecule, % Intact Protein at 10 min (%)
records = [
    ("SEQID-00540: protein of the 168 nutritive polypeptide library (protein, Arthrospira platensis C1, protein of the 168 nutritive polypeptide library) MARIAGVDLPRDKRVEIGLTYIYGIGLSRSKEILAETGVNPDTRVKDLTDADVAALRSVIQTNYQVEGDLRRLEAMSIKRLMDIGTYRGRRHRMGLPVRGQRTRTNARTRRGVRRTVAGKKKAASKK", 0),
    ("SEQID-00525: protein of the 168 nutritive polypeptide library (protein, listed as Saccharomyces cerevisiae, source: /note=\"strain ATCC 204508 / S288c\", protein of the 168 nutritive polypeptide library) MTKNFIVTLKKNTPDVEAKKFLDSVHHAGGSIVHEFDIIKGYTIKVPDVLHLNKLKEKHNDVIENVEEDKEVHT", 13.7),
    ("SEQID-00528: protein of the 168 nutritive polypeptide library (protein, listed as Saccharomyces cerevisiae, source: /note=\"strain ATCC 204508 / S288c\", protein of the 168 nutritive polypeptide library) MVLVQDLLHPTAASEARKHKLKTLVQGPRSYFLDVKCPGCLNITTVFSHAQTAVTCESCSTVLCTPTGGKAKLSEGTSFRRK", 11.8),
    ("SEQID-00529: protein of the 168 nutritive polypeptide library (protein, Arthrospira platensis Sp-1, protein of the 168 nutritive polypeptide library) MLGYISAGKMGSSPSGARFFKYEVVGMRQNDETDKTEYQIRSSGSQFVIVPYNRMNQEMRRINRMGGKIVSIEPMTTDNTVSEAEGE", 0),
    ("SEQID-00510: nutritive polypeptide naturally produced in Turkey, recombinantly expressed in E. coli (protein, Meleagris gallopavo, nutritive polypeptide naturally produced in Turkey, recombinantly expressed in E. coli) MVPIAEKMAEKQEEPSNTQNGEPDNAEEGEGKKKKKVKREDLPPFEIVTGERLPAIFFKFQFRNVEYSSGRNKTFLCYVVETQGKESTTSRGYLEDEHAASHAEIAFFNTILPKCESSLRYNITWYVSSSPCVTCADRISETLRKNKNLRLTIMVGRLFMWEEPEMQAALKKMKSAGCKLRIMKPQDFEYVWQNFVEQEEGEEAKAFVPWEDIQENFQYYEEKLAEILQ", 13.4),
]

Origin of measurements: patent US20160228506A1
